assay: drug combination growth inhibition, ovarian cancer – cell-based, oncology-focused library, rucaparib conditional, profiling panel (AID 1508598); settings: patient-derived ovarian cancer cells, CellTiter-Glo viability, 144 h; at 0.313 µM; OCI-P5x cells; with rucaparib 20 µM; active compounds read low; 100% = cells with rucaparib alone
For each record, check the reported viability: if it is below 90% write T, else write F.

INSERT INTO assay_data (compound, assigned_category) VALUES
  ('Cc1ccc([C@@H]2O[C@H](CO)[C@@H](O)[C@H](O)[C@H]2O)cc1Cc1ccc(-c2ccc(F)cc2)s1', 'F'),
  ('OCCn1cc(-c2cnc3nnn(Cc4ccc5ncccc5c4)c3n2)cn1', 'F'),
  ('CS(=O)(=O)N1CCN(Cc2cc3nc(-c4cccc5[nH]ncc45)nc(N4CCOCC4)c3s2)CC1', 'T'),
  ('CC[C@@H]1C(=O)N(C)c2cnc(Nc3ccc(C(=O)NC4CCC(N5CCN(CC6CC6)CC5)CC4)cc3OC)nc2N1C(C)C (stereo not given in full)', 'T'),
  ('O=C(NOC[C@H](O)CO)c1ccc(F)c(F)c1Nc1ccc(I)cc1F', 'T'),
  ('CN1CCCN(C(=O)c2cccc(-c3ccc(/C=C4/C(=O)Nc5ccc(Cl)cc54)o3)c2)CC1', 'F'),
  ('C#Cc1cccc(Nc2ncnc3cc(OCCOC)c(OCCO)cc23)c1', 'F'),
  ('Cc1cnc(-c2cnc(NCCNc3ccc(C#N)cn3)nc2-c2ccc(Cl)cc2Cl)[nH]1', 'F'),
  ('CN(C)N=Nc1nc[nH]c1C(N)=O', 'F'),
  ('C[C@@H](Oc1cc(-c2cnn(C3CCNCC3)c2)cnc1N)c1c(Cl)ccc(F)c1Cl', 'F'),
  ('C=CC(=O)Nc1cccc(Oc2nc(Nc3ccc(N4CCN(C)CC4)cc3OC)ncc2Cl)c1', 'F'),
  ('Cc1ccc(C(=O)Nc2ccc(CN3CCN(C)CC3)c(C(F)(F)F)c2)cc1C#Cc1cnc2cccnn12', 'T'),
  ('O=C(O)c1ccc(O)c2ncccc12', 'F'),
  ('CC(C)C[C@H](NC(=O)CNC(=O)c1cc(Cl)ccc1Cl)B(O)O', 'T'),
  ('Oc1cccc(-c2nc(N3CCOCC3)c3oc4ncccc4c3n2)c1', 'T'),
  ('S=C(NCc1ccc2c(c1)OCO2)N1CCN(c2ncnc3c2oc2ccccc23)CC1', 'F'),
  ('Cc1ccc(S(=O)(=O)Nc2nc3ccccc3nc2Nc2ccc3nsnc3c2)cc1', 'F'),
  ('Cc1nc(N)sc1-c1ccnc(Nc2ccc(N3CCOCC3)cc2)n1', 'F');

* * *

test: viability loss in pontine glioma line – cell-based, SU-DIPG-IV, MIPE4.0, CellTiter-Glo, qHTS, dose response (AID 1347063); conditions: CellTiter-Glo ATP luminescence;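 also: compound exposure lasted 48 hours before the viability readout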
Inconclusive results are not listed. Active and inactive are the calls of the source. The limit is not given here; nearly all actives have AC50 up to about 30 µM.
Outcome codes: active, inactive

INSERT INTO assay_data (compound_structure, assigned_category) VALUES
  ('Cc1cc(CN2CCN(c3c(Br)cnc4nc(-c5ccc(N6CCN(C)CC6)cc5)[nH]c34)CC2)no1', 'active'),
  ('Cc1ccc(C(=O)N(CCCN)[C@@H](c2oc3cc(Cl)ccc3c(=O)c2Cc2ccccc2)C(C)C)cc1', 'active'),
  ('CC(C)c1cnn2c(NCc3ccccc3)cc(NCCCCCCN)nc12', 'active'),
  ('Cc1n[nH]c(C)c1Cc1sc2c(c1C(=O)N1C[C@H](O)CO1)c(=O)n(C)c(=O)n2CC(C)C', 'inactive'),
  ('OCCCNc1cc(-c2ccnc(Nc3cccc(Cl)c3)n2)ccn1', 'active'),
  ('CC(C)(C)COc1ccc(-n2cc(C(=O)O)cn2)cc1C#N', 'inactive'),
  ('CC(C)N(CC[C@H](c1ccccc1)c1cc(CO)ccc1O)C(C)C', 'inactive'),
  ('O=C1c2cccc(O)c2C(=O)c2c(O)cc(CO)cc21', 'inactive'),
  ('COc1cc2nc(-c3ccc(N4CCN(C)CC4)cc3)nc(NCCN3CCOCC3)c2cc1OC', 'active'),
  ('COc1ccc(S(=O)(=O)N(C(C)=O)c2ccccc2/C=C/c2cc[n+]([O-])cc2)cc1', 'active');

The measured values listed here are drawn from PubChem BioAssay.
